Assayed Target: Human Polymorphonuclear Leukocyte Elastase (Homo sapiens, UniProt P08246)
Construct: Crude extract of human polymorphonuclear leukocytes (PMN) containing elastase activity; endogenous in cells; host or cells: human polymorphonuclear leukocytes (crude extract)
Sequence (P08246 30-247 limits assumed): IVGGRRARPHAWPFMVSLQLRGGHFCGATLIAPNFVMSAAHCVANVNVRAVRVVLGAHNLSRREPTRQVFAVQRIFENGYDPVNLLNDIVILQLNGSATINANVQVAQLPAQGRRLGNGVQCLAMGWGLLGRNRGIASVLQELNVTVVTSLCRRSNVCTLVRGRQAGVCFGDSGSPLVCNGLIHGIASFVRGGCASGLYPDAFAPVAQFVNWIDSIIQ
Assay Notes: Inhibition of human polymorphonuclear leukocyte elastase via hydrolysis of N-t-Boc-alanyl-alanyl-prolylalanine-p-nitroanilide
Format: biochemical
Condition Context: Conc. of compound 20 μg/ml; measured within 2 minutes; crude PMN extract
Measured Endpoint: inhibition at 20 µg/mL (%)
Use % as the unit, but write only the number.

Some entries whose results are on file:
| Compound | Measured Endpoint | Unit Label | Measurement |
| --- | --- | --- | --- |
| CC(O)[C@H]1C(=O)N2C(C(=O)OCc3ccc([N+](=O)[O-])cc3)=C(SCCN3C(=O)c4ccccc4C3=O)C[C@H]12 (stereo partly shown) | inhibition at 20 µg/mL | % | 100 |
| CC(O)[C@H]1C(=O)N2C(C(=O)OCc3ccccc3)=C(SCCN3C(=O)c4ccccc4C3=O)C[C@H]12 (stereo partly shown) | inhibition at 20 µg/mL | % | 100 |
| CC(O)[C@H]1C(=O)N2C(C(=O)OCc3ccc([N+](=O)[O-])cc3)=C(SCCNC(=O)Cc3ccccc3)C[C@H]12 (stereo partly shown) | inhibition at 20 µg/mL | % | 95 |

Exercise: Retrieve inhibition at 20 µg/mL measured for CCCC(=O)NCCSC1=C(C(=O)OCc2ccc([N+](=O)[O-])cc2)N2C(=O)[C@H]([C@@H](C)OC(C)=O)[C@H]2C1 and print it.
Key: 69
